# Test system: MDA-MB-231
# assay_method_text: NCI tumour cell line growth inhibition, 48 h
Active and inactive are the calls of the source. No stated cut-off is given here; in the data, active = GI50 up to about 1.1 µM and inactive = higher.
quantity_name: GI50

Here are 5 compounds. What values of GI50 were reported for them?
1. Cc1ccc(S(=O)(=O)ON2C(=O)c3cccc4cc([N+](=O)[O-])cc(c34)C2=O)cc1
2. CC(Cn1c2c(c3cc(O)ccc31)CCc1ccc(O)cc1-2)N(C)C (stereo not drawn)
3. CCOC(=O)CC(=O)C(=O)NN=C1NCCN1
4. Clc1ccc(-c2cn3c(nc4ccccc43)c(/C=C/c3ccco3)n2)cc1
5. O=C(CCCNc1nc(-c2ccccc2)cs1)c1cccs1

A.
1: 56.2 µM (inactive); 2: 26 µM (inactive); 3: > 100 µM (inactive); 4: 28.4 µM (inactive); 5: > 100 µM (inactive)

Provide GI50 for all items below, preserving their order.
1. CNC(=O)NCCN1CC2CCC(CC2)C1
2. O=C(Nc1ccc(Cl)cc1)c1cc(S(=O)(=O)Nc2nnc3c(Cl)cc(C(F)(F)F)cn23)c(S)cc1Cl
3. CN(N)C(=O)NCCCl
4. CC(=O)Oc1ccc2cc(-c3ccc(OC(C)=O)c(OC(C)=O)c3)c(=O)oc2c1
5. Cc1cc(=O)c2cc(/N=C/c3ccc([N+](=O)[O-])o3)ccc2o1
6. CC(C)(C)C(=O)C(C(=O)C(C)(C)C)C(=O)C(C)(C)C
7. COc1ccc(-c2c(C#N)c(-c3ccc(C)cc3)n(NS(=O)(=O)c3ccccc3)c(=O)c2C#N)cc1

A.
1. > 10 µM (inactive)
2. 33.8 µM (inactive)
3. 1.3 µM (inactive)
4. > 100 µM (inactive)
5. > 100 µM (inactive)
6. > 100 µM (inactive)
7. > 100 µM (inactive)

Hello, I would appreciate it if you could give GI50 for each entry below.
1. Cc1ccc([N+](=O)[O-])cc1S(=O)(=O)Nc1ccc(C2=NNC(c3ccccc3O)C2)cc1 (stereo not drawn)
2. C[C@H]1CC[C@@]2(NC1)O[C@H]1C[C@H]3[C@@H]4CC[C@H]5C[C@@H](O)CC[C@]5(C)[C@H]4CC[C@]3(C)[C@H]1[C@@H]2C
3. O=C(O)CSSCC(=O)O

A.
26.7 µM (inactive)
32.2 µM (inactive)
> 100 µM (inactive)

Please give GI50 for each item listed below.
1. CCc1nc(N)nc(N)c1-c1ccc(NC)c([N+](=O)[O-])c1
2. COC(=O)[C@@]12C(=O)C(C)C(=O)[C@]1(C)C(C)=C[C@H]1[C@]3(C=O)CC[C@H](OC(C)=O)C(C)(C)[C@H]3CC[C@@]12C (stereo partly drawn)
3. CCN(CC)CCCNc1ccc2nnn3c4ccc(O)cc4c(=O)c1c23

A.
1: 27.2 µM (inactive); 2: > 100 µM (inactive); 3: 7.74 µM (inactive)

* * *

# Tested on: SF-539
# assay_method_text: NCI tumour cell line growth inhibition, 48 h
Active and inactive are the calls of the source. No stated cut-off is given here; in the data, active = GI50 up to about 1.1 µM and inactive = higher.
quantity_name: GI50

compound	study_target	quantity_name	readout_value
CSc1nc2c(ncn2C2OCC(O)C(O)C2O)c(=O)[nH]1 (stereo not drawn)	SF-539	GI50	> 100 µM (inactive)
O=C(CCCNc1nc(-c2ccccc2)cs1)c1cccs1	SF-539	GI50	> 100 µM (inactive)
O=P(O)(CCP(=O)(O)c1ccccc1)c1ccccc1	SF-539	GI50	> 100 µM (inactive)

List reported GI50 for each of these compounds:
1. Cc1cc2c(cc1Cl)SC(NNC(=O)c1ccncc1)=NS2(=O)=O
2. O=C(NC1(C(=O)O)CCCC1)c1ccccc1
3. C=C(C=O)CCCC(C)[C@@H]1CCC23CC12CCC1[C@@]2(C)CCC(OC(C)=O)C(C)(C)C2CC(OC2OC(COC(C)=O)C(O)C(O)C2O)[C@]13C (stereo partly drawn)
4. Nc1nc(N)nc(-c2cnc3ccccc3c2)n1
5. Nc1ncnc2c1ncn2C1CC(OC2CCCCO2)C(CO)O1 (stereo not drawn)

A.
1: > 10 µM (inactive); 2: > 100 µM (inactive); 3: 5.7 µM (inactive); 4: > 100 µM (inactive); 5: > 100 µM (inactive)

The origin of these recorded values is ChEMBL document CHEMBL1201862.
